Test system: carbapenemase producing K. pneumoniae
experiment_description: MIC by broth micro-dilution (CLSI), carbapenemase producing K. pneumoniae
Assay type: cell-based, Klebsiella pneumoniae
conditions_used: Klebsiella pneumoniae, ATCCBAA1705, KPC-2 K. pneumoniae ATCC BAA-1705; read-out: MIC
Define the label as MET when MIC is strictly less than 2 µg/mL and as NOT MET in all remaining cases.

# compound, label_value
records = [
    ("C[C@@H](NC(=O)CN(C)C)[C@H]1C(=O)N2C(C(=O)O)=C(S[C@@H]3CN[C@H](C(=O)N(C)C)C3)[C@H](C)[C@H]12", "NOT MET"),
    ("C[C@@H](NC(=O)Cn1cnnn1)[C@H]1C(=O)N2C(C(=O)O)=C(S[C@@H]3CN[C@H](C(=O)N4CCC5(CCNC5)CC4)C3)[C@H](C)[C@H]12", "MET"),
    ("C[C@@H](NS(=O)(=O)C(F)(F)F)[C@H]1C(=O)N2C(C(=O)O)=C(S[C@@H]3CN[C@H](C(=O)N(C)C)C3)[C@H](C)[C@H]12", "NOT MET"),
    ("C[C@@H](NC(=O)C(F)F)[C@H]1C(=O)N2C(C(=O)O)=C(S[C@@H]3CN[C@H](C(=O)N4CC[C@H](N)C4)C3)[C@H](C)[C@H]12", "NOT MET"),
    ("C[C@@H](NC(=O)C(F)F)[C@H]1C(=O)N2C(C(=O)O)=C(S[C@@H]3CN[C@H](C(=O)N4CC[C@H](NC(=O)CNC(=N)N)C4)C3)[C@H](C)[C@H]12", "NOT MET"),
    ("C[C@@H](NC(=O)Cn1cnnn1)[C@H]1C(=O)N2C(C(=O)O)=C(S[C@@H]3CN[C@H](C(=O)N4C[C@H](O)[C@H](NC(=N)N)C4)C3)[C@H](C)[C@H]12", "MET"),
    ("C[C@@H](NC(=O)C(F)F)[C@H]1C(=O)N2C(C(=O)O)=C(S[C@@H]3CN[C@H](C(=O)N4CC[C@H](NS(=O)(=O)CCN)C4)C3)[C@H](C)[C@H]12", "NOT MET"),
    ("C[C@@H](NC(=O)Cn1cnnn1)[C@H]1C(=O)N2C(C(=O)O)=C(S[C@@H]3CN[C@H](C(=O)N4CC5CCNCC5(CO)C4)C3)[C@H](C)[C@H]12 (single isomer, unassigned)", "MET"),
    ("CNCCC(=O)N[C@H](C)[C@H]1C(=O)N2C(C(=O)O)=C(S[C@@H]3CN[C@H](C(=O)N(C)C)C3)[C@H](C)[C@H]12", "NOT MET"),
    ("CNCC(=O)N[C@H](C)[C@H]1C(=O)N2C(C(=O)O)=C(S[C@@H]3CN[C@H](C(=O)N4CCC(N)(Cc5ccccc5)CC4)C3)[C@H](C)[C@H]12", "NOT MET"),
]
